Hello, the source for this data is ChEMBL document CHEMBL3352485, in case you need it.

- TEST_SUMMARY: Stability of the compound in aqueous solution assessed as residual ratio at pH 3 up to 2 weeks by HPLC analysis relative to initial level
- Format: physicochemical
Where a SMILES comes first, the peptide text is derived from it. [ ]: non-standard residue; d: D form. Arg(Me) = CNC(=N)NCCC[C@H](N)C(=O)O; azaGly = NNC(=O)O
OBSERVATION_TYPE: remaining at 336 h
Please report the result as a number followed by the unit.

Input line: Could you tell me which remaining at 336 h is on file for CNC(=N)NCCC[C@H](NC(=O)[C@H](CC(C)C)NC(=O)NNC(=O)[C@H](Cc1ccccc1)NC(=O)[C@@H](NC(=O)[C@H](CC(N)=O)NC(=O)[C@@H](Cc1c[nH]c2ccccc12)NC(=O)[C@@H](Cc1ccc(O)cc1)NC(C)=O)[C@@H](C)O)C(=O)N[C@@H](Cc1c[nH]c2ccccc12)C(N)=O (Ac-[dY][dW]NTF[azaGly]L[Arg(Me)]W-NH2) ?
Output line: 95.6%

Input line: Look at this compound and give its reported remaining at 336 h. CNC(=N)NCCC[C@H](NC(=O)[C@H](CC(C)C)NC(=O)NNC(=O)[C@H](Cc1ccccc1)NC(=O)[C@@H](NC(=O)[C@H](CC(N)=O)NC(=O)[C@@H](Cc1ccncc1)NC(=O)[C@@H](Cc1ccc(O)cc1)NC(C)=O)[C@@H](C)O)C(=O)N[C@@H](Cc1c[nH]c2ccccc12)C(N)=O
Output line: 96.8%
